Target: Cholinesterase (Equus caballus, UniProt P81908)
Sequence (P81908 whole entry): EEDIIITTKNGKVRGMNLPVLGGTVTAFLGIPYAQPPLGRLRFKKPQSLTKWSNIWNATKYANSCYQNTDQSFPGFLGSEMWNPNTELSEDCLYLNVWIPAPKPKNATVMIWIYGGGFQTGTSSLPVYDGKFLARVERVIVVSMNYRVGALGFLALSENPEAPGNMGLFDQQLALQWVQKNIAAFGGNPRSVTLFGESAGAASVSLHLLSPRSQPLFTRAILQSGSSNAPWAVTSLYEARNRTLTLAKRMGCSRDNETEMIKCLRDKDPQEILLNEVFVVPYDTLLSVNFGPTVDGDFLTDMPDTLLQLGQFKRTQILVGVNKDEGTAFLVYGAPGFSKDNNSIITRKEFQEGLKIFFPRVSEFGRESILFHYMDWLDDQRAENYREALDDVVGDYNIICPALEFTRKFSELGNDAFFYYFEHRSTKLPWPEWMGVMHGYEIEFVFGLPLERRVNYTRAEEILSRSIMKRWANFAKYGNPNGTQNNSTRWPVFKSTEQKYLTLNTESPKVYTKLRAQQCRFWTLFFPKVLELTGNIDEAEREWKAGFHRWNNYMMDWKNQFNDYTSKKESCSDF
Assay: Inhibition of equine serum BuChE using butyrylthiocholine iodide as substrate preincubated for 20 mins followed by substrate addition and measured after 10 mins by DTNB based Ellman's method
For each of the compounds below, state its pIC50.
Answers are plain numbers, as −log10 of the molar value.

1) O=C1NCCCc2c1c1ccccc1n2CCCCN1CCN(Cc2ccccc2)CC1 : 5.58
2) O=C1NCCCc2c1c1ccccc1n2CCCCCN1CCN(c2ccc(F)cc2)CC1 : 5.75
3) CN1CCN(CCCCCCCn2c3c(c4ccccc42)C(=O)NCCC3)CC1 : 5.00
4) O=C1NCCCc2c1c1ccccc1n2CCCCCN1CCN(c2ccccc2F)CC1 : 6.00
5) O=C1NCCCc2c1c1ccccc1n2CCCCCCCN1CCN(c2ccccn2)CC1 : 5.68
6) O=C1NCCCc2c1c1ccccc1n2CCCCCCCN1CCN(c2ccccc2)CC1 : 6.12

Take each entry in turn and give its pIC50.
1. O=C1NCCCc2c1c1ccccc1n2CCCCCCCN1CCN(Cc2ccncc2)CC1
2. O=C1NCCCc2c1c1ccccc1n2CCCCCN1CCN(CCc2ccccc2)CC1
3. O=C1NCCCc2c1c1ccccc1n2CCN1CCN(Cc2ccccc2)CC1
4. O=C1NCCCc2c1c1ccccc1n2CCCCCN1CCN(Cc2ccncc2)CC1

5.73
6.79
5.18
5.72

* * *

For each of the compounds below, state its residence time.
Target: serum albumin (Homo sapiens)
Sequence (P02768 whole entry): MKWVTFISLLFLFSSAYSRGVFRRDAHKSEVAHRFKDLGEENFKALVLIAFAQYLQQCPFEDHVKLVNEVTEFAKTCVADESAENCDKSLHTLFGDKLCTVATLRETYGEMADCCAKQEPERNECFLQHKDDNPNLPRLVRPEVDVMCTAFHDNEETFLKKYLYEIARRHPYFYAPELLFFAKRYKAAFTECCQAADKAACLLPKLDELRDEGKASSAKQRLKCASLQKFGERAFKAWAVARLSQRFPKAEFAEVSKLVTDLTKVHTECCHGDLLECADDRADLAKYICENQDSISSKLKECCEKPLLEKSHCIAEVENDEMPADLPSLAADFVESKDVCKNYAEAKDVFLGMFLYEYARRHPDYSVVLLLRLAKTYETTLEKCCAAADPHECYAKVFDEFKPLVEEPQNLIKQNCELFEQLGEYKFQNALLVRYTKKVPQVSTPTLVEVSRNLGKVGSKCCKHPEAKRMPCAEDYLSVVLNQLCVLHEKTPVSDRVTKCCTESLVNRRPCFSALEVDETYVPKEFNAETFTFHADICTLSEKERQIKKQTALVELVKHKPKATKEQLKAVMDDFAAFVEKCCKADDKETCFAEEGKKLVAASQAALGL
Assay: Binding affinity to human serum albumin assessed as residence time by SPR analysis
Format: ADME
Numbers only, in min.

As a guide, the following entries are already answered.
1) O=C1NCCCc2c1c1ccccc1n2CCCCCCCN1CCN(c2ccccc2)CC1 : 0.25
2) O=C1NCCCc2c1c1ccccc1n2CCc1ccccc1 : 1
3) O=C1NCCCc2c1c1ccccc1n2CCCCCN1CCN(CCc2ccccc2)CC1 : 0.183

Here's the next entry for you.
Give its residence time value. Item: O=C1NCCCc2c1c1ccccc1n2CCCCCCCN1CCN(CCc2ccccc2)CC1
0.1

* * *

Target: UniProt P81908
Assay: Inhibition of equine serum BuChE using butyrylthiocholine iodide as substrate preincubated for 20 mins followed by substrate addition and measured after 10 mins by DTNB based Ellman's method
For each of the compounds below, state its IC50.
A complete answer gives the number and then names the unit.

As a guide, the following entries are already answered.
1. O=C1NCCCc2c1c1ccccc1n2CCN1CCN(CCc2ccccc2)CC1 : 5790 nM
2. O=C1NCCCc2c1c1ccccc1n2CCCCCN1CCN(Cc2ccccc2)CC1 : 430 nM
3. O=C1NCCCc2c1c1ccccc1n2CCCCN1CCN(CCc2ccccc2)CC1 : 528 nM
4. O=C1NCCCc2c1c1ccccc1n2CCCCCCCN1CCN(Cc2cccnc2)CC1 : 466 nM

Here's the next entry for you.
Give its IC50 value. Item: O=C1NCCCc2c1c1ccccc1n2CCCCCN1CCN(Cc2cccnc2)CC1
4920 nM

* * *

Biological target: Acetylcholinesterase (Electrophorus electricus)
Experiment: Inhibition of electric eel AChE using acetylthiocholine iodide as substrate at 20 uM preincubated for 20 mins followed by substrate addition and measured after 10 mins by DTNB-reagent based Ellman's method relative to control
Conditions: time 30.0 min
For each of the compounds below, state its inhibition.
Numbers only, in %.

As a guide, the following entries are already answered.
1) O=C1NCCCc2c1c1ccccc1n2CCCCCN1CCN(c2ccccc2)CC1 : 31
2) O=C1NCCCc2c1c1ccccc1n2CCCCCN1CCN(c2ccccc2F)CC1 : 35

Here's the next entry for you.
Any idea what inhibition came out for O=C1NCCCc2c1c1ccccc1n2CCCCCCCN1CCN(Cc2cccnc2)CC1 on Acetylcholinesterase (Electrophorus electricus)?
40

Entry source: ChEMBL document CHEMBL5500348
